experiment: Cytotoxicity in normal human epidermal melanocytes (trypan blue); assay type: cell-based; settings: 2 days culture, 0.5% trypan blue, concentration not given, read-out: cytotoxicity (judgement by cell death rate)
endpoint: cytotoxicity at 48 h

## Task Please give the documented cytotoxicity at 48 h of CCCCCCCCCCC(=O)OC[C@H]1O[C@@H](Oc2ccc(O)cc2)[C@H](O)[C@@H](O)[C@@H]1O
## Result > 50%
